test system: K562; experiment: Cytotoxicity against human imatinib-resistant K562 leukemia cells expressing p210Bcr/Abl and MDR1 at 48 hrs by MTT assay; format: functional, cell-based; conditions: K562, 48 h
Please use Satisfied for IC50 under 2000 nM and Not satisfied for everything else, ties included.

[ask] Quick check: does "COc1cc2c3cc1Oc1c(OC)c(OC)cc4c1[C@@H](Cc1ccc(OC(=O)Cc5cc(F)c(F)cc5F)c(c1)Oc1ccc(cc1)C[C@@H]3N(C)CC2)N(C)CC4" have IC50 under 2000 nM?
[reply] Not satisfied

[ask] Next entry: "COc1cc2c3cc1Oc1c(OC)c(OC)cc4c1[C@@H](Cc1ccc(OCc5cc(OC)c(OC)c(OC)c5)c(c1)Oc1ccc(cc1)C[C@@H]3N(C)CC2)N(C)CC4"
[reply] Satisfied

[ask] Would you mind doing "CCOCCCCOc1ccc2cc1Oc1ccc(cc1)C[C@H]1c3cc(c(OC)cc3CCN1C)Oc1c(OC)c(OC)cc3c1[C@@H](C2)N(C)CC3" as well?
[reply] Not satisfied

[ask] Also, "COc1cc2c3cc1Oc1c(OC)c(OC)cc4c1[C@@H](Cc1ccc(OC(=O)c5cccc(C(F)(F)F)c5)c(c1)Oc1ccc(cc1)C[C@@H]3N(C)CC2)N(C)CC4" please.
[reply] Satisfied

[ask] Similarly, "COc1cc2c3cc1Oc1c(OC)c(OC)cc4c1[C@@H](Cc1ccc(OC(=O)c5ccc([N+](=O)[O-])cc5)c(c1)Oc1ccc(cc1)C[C@@H]3N(C)CC2)N(C)CC4" ?
[reply] Not satisfied

[ask] Entry to check: "COc1cc2c3cc1Oc1c(OC)c(OC)cc4c1[C@@H](Cc1ccc(OCc5ccc(Br)cc5)c(c1)Oc1ccc(cc1)C[C@@H]3N(C)CC2)N(C)CC4"
[reply] Satisfied

[ask] Also "COc1cc2c3cc1Oc1c(OC)c(OC)cc4c1[C@@H](Cc1ccc(OCc5ccc(Cl)nc5)c(c1)Oc1ccc(cc1)C[C@@H]3N(C)CC2)N(C)CC4" , if possible.
[reply] Satisfied

[ask] Please answer likewise for "C=C(C)C(=O)Oc1ccc2cc1Oc1ccc(cc1)C[C@H]1c3cc(c(OC)cc3CCN1C)Oc1c(OC)c(OC)cc3c1[C@@H](C2)N(C)CC3"
[reply] Not satisfied

[ask] How about "COc1ccc(C(=O)Oc2ccc3cc2Oc2ccc(cc2)C[C@H]2c4cc(c(OC)cc4CCN2C)Oc2c(OC)c(OC)cc4c2[C@@H](C3)N(C)CC4)cc1" ?
[reply] Satisfied

[ask] Now give it for "COc1cc2c3cc1Oc1c(OC)c(OC)cc4c1[C@@H](Cc1ccc(OC(=O)Cc5ccccc5)c(c1)Oc1ccc(cc1)C[C@@H]3N(C)CC2)N(C)CC4" too.
[reply] Not satisfied

[ask] Same question for "COc1cc2c3cc1Oc1c(OC)c(OC)cc4c1[C@@H](Cc1ccc(OC(=O)c5ccccc5C)c(c1)Oc1ccc(cc1)C[C@@H]3N(C)CC2)N(C)CC4" please.
[reply] Satisfied

[ask] Please give the result for "COc1cc2c3cc1Oc1c(OC)c(OC)cc4c1[C@@H](Cc1ccc(OC(=O)C(C)(C)C)c(c1)Oc1ccc(cc1)C[C@@H]3N(C)CC2)N(C)CC4" too.
[reply] Satisfied
